// reported log10 IC50 for each item listed
target: Cytochrome P450 2D6 (Homo sapiens, UniProt P10635)
Sequence (P10635 whole entry): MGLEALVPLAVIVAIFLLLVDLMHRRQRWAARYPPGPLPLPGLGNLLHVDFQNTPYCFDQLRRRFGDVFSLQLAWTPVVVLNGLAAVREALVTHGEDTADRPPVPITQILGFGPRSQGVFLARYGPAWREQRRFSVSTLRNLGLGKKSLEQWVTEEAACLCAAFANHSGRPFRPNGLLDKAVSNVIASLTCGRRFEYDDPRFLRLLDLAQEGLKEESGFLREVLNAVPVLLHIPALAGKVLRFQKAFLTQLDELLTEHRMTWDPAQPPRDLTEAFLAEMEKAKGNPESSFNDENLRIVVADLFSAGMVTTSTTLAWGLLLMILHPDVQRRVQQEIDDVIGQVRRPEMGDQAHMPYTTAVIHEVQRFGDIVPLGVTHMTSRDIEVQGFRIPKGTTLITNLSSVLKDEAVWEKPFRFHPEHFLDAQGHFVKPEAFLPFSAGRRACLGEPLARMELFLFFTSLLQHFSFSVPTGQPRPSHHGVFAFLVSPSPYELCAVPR
assay-procedure: Inhibition of human recombinant CYP2D6
Response schema: value (number) is log10 of IC50 in units of nM.

[Q] Query (molecule): `O=S(=O)(Nc1ccc2c(c1)CCN(Cc1cc[nH]n1)CC2)c1ccc(-c2ccccn2)s1` ; field requested: log10 IC50
[A] 2.30

[Q] What value of log10 IC50 has been recorded for this entry: `CC1(C)CCc2cc(S(=O)(=O)Nc3ccc4c(c3)CCN(Cc3cc[nH]n3)CC4)ccc2O1`
[A] 2.70

[Q] # lookup: log10 IC50 of `N#Cc1ccc(S(=O)(=O)Nc2ccc3c(c2)CCN(Cc2cc[nH]n2)CC3)cc1`
[A] 3.90

[Q] Bench note: what log10 IC50 did `O=S(=O)(Cc1ccc2c(c1)CCNCC2)c1ccc(-c2ccc(F)c(F)c2)cc1` show?
[A] 2.00

[Q] Fill in: log10 IC50 of `O=S(=O)(Cc1ccc2c(c1)CCNCC2)c1ccc(Oc2ccc(F)cc2)nc1` is ___
[A] 3.23

[Q] Record request: log10 IC50 value, item `O=S(=O)(Cc1ccc2c(c1)CCNCC2)c1ccc(-c2ccc(F)cc2)nc1`
[A] 2.78

[Q] Fill in: log10 IC50 of `O=S(=O)(Cc1ccc2c(c1)CCNCC2)c1ccc(-c2ccc(F)cc2)cc1` is ___
[A] 2.30

[Q] What log10 IC50 value was documented for this molecule, `CC(C)Oc1ccc(S(=O)(=O)Nc2ccc3c(c2)CCN(Cc2cc[nH]n2)CC3)cc1` ?
[A] 3.11
